Tested on: P388 leukemia ip, CD2F1 mice, survival T/C
ASSAY_OVERVIEW: NCI In Vivo Anticancer Drug Screen. Data for tumor model P388 Leukemia (intraperitoneal) in CD2F1 (CDF1) mice
CONDITION_DESCRIPTION: endpoint: median survival time; dose: 50.0 mg/kg/injection; schedule: Q01DX009 (ip); vehicle: Klucel (hydroxypropylcellulose) (HPC); higher = longer survival
Toxic doses and inconclusive results are not listed.
REPORTED_METRIC: T/C

The cases that follow already have their T/C on record.
INSERT INTO assay_data (compound, result) VALUES
  ('CC12CC3CC(C)(C1)CC(C(Cl)C(=O)NC(C)(C)C)(C3)C2 (configuration not stated)', '97 % of control'),
  ('COc1ccc(C(=O)Nc2cccnc2)cc1', '98 % of control'),
  ('CCn1c(=O)c2n[nH]nc2n(CCCl)c1=O', '101 % of control'),
  ('Cc1[nH]c2c(-c3ccccc3)c3cc(Cl)ccc3nc2c1C(=O)O', '89 % of control');

# T/C of ClC(Cl)(Cl)C(c1cccs1)c1cccs1 = 103 % of control

---

Some compounds, each annotated with its measured T/C.
Test system: P388 leukemia ip, CD2F1 mice, survival T/C
ASSAY_OVERVIEW: NCI In Vivo Anticancer Drug Screen. Data for tumor model P388 Leukemia (intraperitoneal) in CD2F1 (CDF1) mice
CONDITION_DESCRIPTION: endpoint: median survival time; dose: 200.0 mg/kg/injection; schedule: Q01DX005 (ip); vehicle: saline with Tween-80; higher = longer survival
Toxic doses and inconclusive results are not listed. Peptide text beside a SMILES is read from it. * marks the point of attachment. Cbz = O=C(OCc1ccccc1)*

INSERT INTO measurements (compound, result) VALUES
  ('COc1ccc2[nH]c3c(c2c1)-c1ncncc1CC3', '106 % of control'),
  ('CCCCOCc1c(-c2ccccc2)sc2ccccc2c1=O', '100 % of control'),
  ('CC1(C)CC(O)C2OC2C1 (configuration not stated)', '106 % of control'),
  ('O=[N+]([O-])c1ccc(Sc2c3ccccc3nc3ccccc23)nc1', '100 % of control'),
  ('NC(=O)C(Cc1ccccc1)NC(=O)C(Cc1ccccc1)NC(=O)C(Cc1ccccc1)NC(=O)OCc1ccccc1 (stereo not drawn) (Cbz-Phe-Phe-Phe-NH2; configuration not given here)', '102 % of control');

// CC(=O)O[C@H]1C(=O)C=C[C@H](C)[C@@H]2CC[C@H](OC(C)(C)C)[C@@]12C : T/C value = 108 % of control

Field T/C (entry O=C(NCCCNC(=O)C12CC3CC(CC(C3)C1)C2)C12CC3CC(CC(C3)C1)C2 ) reads 100 % of control

In plain terms, c1ccc(/C(=N\Nc2ccccn2)c2ccccn2)cc1 has a documented T/C of 108 % of control

Entry C=C(c1ccccc1)N1N=NC2CCOC21 (configuration not stated) — recorded T/C = 100 % of control

Note to self: T/C recorded for c1ccc2c(c1)C1OC2c2c1ccc1ccccc21 (configuration not stated) was 88 % of control

Value of measured T/C for the entry O=S(=O)(c1ccccc1)N1CCN(S(=O)(=O)c2ccccc2)COC1 : 102 % of control

---

Tested on: P388 leukemia ip, CD2F1 mice, survival T/C
ASSAY_OVERVIEW: NCI In Vivo Anticancer Drug Screen. Data for tumor model P388 Leukemia (intraperitoneal) in CD2F1 (CDF1) mice
CONDITION_DESCRIPTION: endpoint: median survival time; dose: 50.0 mg/kg/injection; schedule: Q01DX005 (ip); vehicle: saline with Tween-80; higher = longer survival
Toxic doses and inconclusive results are not listed.
REPORTED_METRIC: T/C

Use these answered entries as a reference point.
INSERT INTO measurements (molecule, reported_metric, result) VALUES
  ('COc1ccc(S(=O)(=O)N/N=C(/C(=O)O)c2ccccc2)cc1', 'T/C', '106 % of control'),
  ('CCN(CC)CCC(=O)c1ccc(Cl)c2ccccc12', 'T/C', '109 % of control'),
  ('CCn1c2ccccc2c2cc(NC(=O)N3CCCCC3)ccc21', 'T/C', '95 % of control'),
  ('CCOC(=O)C1C2(C)NC(=O)C1(Cc1ccccc1)c1cc(C)c(C)cc1O2 (stereo unspecified)', 'T/C', '99 % of control'),
  ('O=P(C/C=C/CO)(c1ccccc1)c1ccccc1', 'T/C', '98 % of control');

Value sought: T/C, system P388 leukemia ip, CD2F1 mice, survival T/C, item COc1ccc(/C=N/NC(=O)COCC(=O)N/N=C/c2ccc(OC)cc2)cc1 . Result: 100 % of control

---

Test system: P388 leukemia ip, CD2F1 mice, survival T/C
ASSAY_OVERVIEW: NCI In Vivo Anticancer Drug Screen. Data for tumor model P388 Leukemia (intraperitoneal) in CD2F1 (CDF1) mice
CONDITION_DESCRIPTION: endpoint: median survival time; dose: 60.0 mg/kg/injection; schedule: Q01DX005 (ip); vehicle: saline with Tween-80; higher = longer survival
Toxic doses and inconclusive results are not listed.
Listed below: T/C values for each entry.

The following molecules have reported results that may help.
INSERT INTO results (molecule, result) VALUES
  ('COC(=O)C1=NC(=N)N=C(C(=O)OC)C12C(=O)Cc1ccccc12 (stereo unspecified)', '103 % of control'),
  ('O=C1CC2CC(=O)C(S(=O)c3ccccc3)C2C1 (stereo unspecified)', '96 % of control'),
  ('O=c1oc2ccc3ccccc3c2cc1-n1nnc2ccccc21', '91 % of control'),
  ('O=S(=O)(c1cccc(C(F)(F)F)c1)N(CCCCN(S(=O)(=O)c1cccc(C(F)(F)F)c1)S(=O)(=O)c1cccc(C(F)(F)F)c1)S(=O)(=O)c1cccc(C(F)(F)F)c1', '97 % of control'),
  ('Cc1cc(Cl)cc2c1NC(=O)C2(O)C/C(=N/NC(=O)CC#N)c1cccc([N+](=O)[O-])c1 (stereo unspecified)', '93 % of control');

Query Clc1nc(C(Cl)Cl)nc2sc3c(c12)CCCC3 yields T/C of 98 % of control

The measured T/C associated with CCCCCCC(=O)CC(SCCO)c1ccccc1Cl (stereo unspecified) reads 92 % of control

get_value(item= N#Cn1c2ccccc2c(=N)c2ccccc21 , readout=T/C) returns 103 % of control

Reported T/C for Cc1c(C#N)c(=O)[nH]c2ccc([N+](=O)[O-])cc12 was 94 % of control

The molecule listed as [Se]=[Mo]=[Se] has a reported T/C of 96 % of control

The molecule identified as COc1cc(/C=C2/Nc3ccc(Cl)cc3NC2=O)ccc1O registered its T/C at 93 % of control

---

Test system: P388 leukemia ip, CD2F1 mice, survival T/C
ASSAY_OVERVIEW: NCI In Vivo Anticancer Drug Screen. Data for tumor model P388 Leukemia (intraperitoneal) in CD2F1 (CDF1) mice
CONDITION_DESCRIPTION: endpoint: median survival time; dose: 120.0 mg/kg/injection; schedule: Q01DX005 (ip); vehicle: Klucel (hydroxypropylcellulose) (HPC); higher = longer survival
Inconclusive results and toxic doses are left out.
REPORTED_METRIC: T/C

Examples with answers:
INSERT INTO measurements (compound, study_system, result) VALUES
  ('CCOC(=O)c1cc(=O)c2c(OC)ccc(Cl)c2[nH]1', 'P388 leukemia ip, CD2F1 mice, survival T/C', '99 % of control'),
  ('CC(C)(C)n1nc(C2CC2)cc1NC(=O)Nc1ccccc1', 'P388 leukemia ip, CD2F1 mice, survival T/C', '98 % of control');

Lab note: measured T/C of CN1C(=O)N(C)[C@@H]2CC(=O)c3ccc(C(F)(F)F)cc3N2C1=O was 107 % of control

Quick note, T/C for Cc1ccc(N=Nc2c(C)noc2C)c(Br)c1 landed at 100 % of control

Documented T/C of C/C=C(\C)[C@H](O)C(COCc1ccccc1)NS(=O)(=O)c1ccc(C)cc1 (stereo partly specified) : 100 % of control

T/C reported for this compound O=C(O)c1ccc(-c2c3ccc(=O)cc-3oc3cc(O)ccc23)cc1 : 97 % of control

---

Test system: P388 leukemia ip, CD2F1 mice, survival T/C
ASSAY_OVERVIEW: NCI In Vivo Anticancer Drug Screen. Data for tumor model P388 Leukemia (intraperitoneal) in CD2F1 (CDF1) mice
CONDITION_DESCRIPTION: endpoint: median survival time; dose: 50.0 mg/kg/injection; schedule: Q01DX009 (ip); vehicle: other; higher = longer survival
Inconclusive results and toxic doses are left out.
REPORTED_METRIC: T/C

Study these solved cases before continuing.
INSERT INTO assay_data (compound, reported_metric, result) VALUES
  ('O=C(O)CCCCCCCCCOC(C[N+](=O)[O-])C(Cl)(Cl)Cl (centres undefined)', 'T/C', '102 % of control'),
  ('O=c1c2cc3c(cc2c2cc([N+](=O)[O-])cc4c2n1CC4)OCO3', 'T/C', '92 % of control'),
  ('O=C(c1cc2c(cc1Br)OCO2)N1CCCc2ccccc21', 'T/C', '97 % of control');

# T/C (compound: COc1cc2cccc(O)c2cc1OC ) is 92 % of control

For COc1cc2c(cc1OC)/C(=N/N=C1\CCCc3cc(OC)c(OC)cc31)CCC2 the compound record lists T/C as 90 % of control

Form field T/C, entry Cc1ccc(CNc2cc(C)ccn2)cc1 : 109 % of control

Consider CCC(C)N(C(=O)c1ccccc1)c1ccccc1 (centres undefined) . Its measured T/C is 102 % of control

Consider Nc1cc2c(cn1)[nH]c1ccccc12 . Its measured T/C is 108 % of control

For COc1cccc2c1C(=O)c1c(O)c3c(c(O)c1C2=O)CC(O)(C(C)=O)CC3O (centres undefined) the compound record lists T/C as 91 % of control
